# Species: Homo sapiens
# Experimental Protocol: Binding affinity to human telomeric G-quadruplex TelQ22-DA DNA at 65 degC by FRET melting assay

Mol | Unit Symbol | Kb
CNCCNc1c2c(c(NCCNC(=N)N)c3ccsc13)C(=O)c1ccccc1C2=O | ×10⁶ /M | 1.6
CNCCNc1c2c(c(NCCNC(=N)N)c3sccc13)C(=O)c1ccccc1C2=O | ×10⁶ /M | 1.5
CC(=N)NCCNc1c2c(c(NCCNC(C)=N)c3sccc13)C(=O)c1ccccc1C2=O | ×10⁶ /M | 2.4
Cl.N=C(N)NCCNc1c2c(c(NCCCN)c3sccc13)C(=O)c1ccccc1C2=O | ×10⁶ /M | 5
Nc1c2c(c(N)c3sccc13)C(=O)c1ccccc1C2=O | ×10⁶ /M | 0.01
N=C(N)NCCNc1c2c(c(N)c3sccc13)C(=O)c1ccccc1C2=O | ×10⁶ /M | 0.2
CNCCNc1c2c(c(NCCNC)c3sccc13)C(=O)c1ccccc1C2=O.Cl | ×10⁶ /M | 1.1
N=C(N)NCCNc1c2c(c(NCCN)c3sccc13)C(=O)c1ccccc1C2=O | ×10⁶ /M | 1.5
N=C(N)NCCNc1c2c(c(N)c3ccsc13)C(=O)c1ccccc1C2=O | ×10⁶ /M | 0.1
Cl.N=C(N)NCCNc1c2c(c(NCCNC(=N)N)c3sccc13)C(=O)c1ccccc1C2=O | ×10⁶ /M | 7

Where do these numbers come from? They come from ChEMBL document CHEMBL3351222.
